I'd be grateful if you could share measured koff for these entries.
# Experimental Target: T1, Clostridium difficile toxin A (TcdA) (Clostridium difficile, UniProt P16154 1-2710)
# T1 construct: mature; also called full-length TcdA
# T1 sequence (P16154 whole entry): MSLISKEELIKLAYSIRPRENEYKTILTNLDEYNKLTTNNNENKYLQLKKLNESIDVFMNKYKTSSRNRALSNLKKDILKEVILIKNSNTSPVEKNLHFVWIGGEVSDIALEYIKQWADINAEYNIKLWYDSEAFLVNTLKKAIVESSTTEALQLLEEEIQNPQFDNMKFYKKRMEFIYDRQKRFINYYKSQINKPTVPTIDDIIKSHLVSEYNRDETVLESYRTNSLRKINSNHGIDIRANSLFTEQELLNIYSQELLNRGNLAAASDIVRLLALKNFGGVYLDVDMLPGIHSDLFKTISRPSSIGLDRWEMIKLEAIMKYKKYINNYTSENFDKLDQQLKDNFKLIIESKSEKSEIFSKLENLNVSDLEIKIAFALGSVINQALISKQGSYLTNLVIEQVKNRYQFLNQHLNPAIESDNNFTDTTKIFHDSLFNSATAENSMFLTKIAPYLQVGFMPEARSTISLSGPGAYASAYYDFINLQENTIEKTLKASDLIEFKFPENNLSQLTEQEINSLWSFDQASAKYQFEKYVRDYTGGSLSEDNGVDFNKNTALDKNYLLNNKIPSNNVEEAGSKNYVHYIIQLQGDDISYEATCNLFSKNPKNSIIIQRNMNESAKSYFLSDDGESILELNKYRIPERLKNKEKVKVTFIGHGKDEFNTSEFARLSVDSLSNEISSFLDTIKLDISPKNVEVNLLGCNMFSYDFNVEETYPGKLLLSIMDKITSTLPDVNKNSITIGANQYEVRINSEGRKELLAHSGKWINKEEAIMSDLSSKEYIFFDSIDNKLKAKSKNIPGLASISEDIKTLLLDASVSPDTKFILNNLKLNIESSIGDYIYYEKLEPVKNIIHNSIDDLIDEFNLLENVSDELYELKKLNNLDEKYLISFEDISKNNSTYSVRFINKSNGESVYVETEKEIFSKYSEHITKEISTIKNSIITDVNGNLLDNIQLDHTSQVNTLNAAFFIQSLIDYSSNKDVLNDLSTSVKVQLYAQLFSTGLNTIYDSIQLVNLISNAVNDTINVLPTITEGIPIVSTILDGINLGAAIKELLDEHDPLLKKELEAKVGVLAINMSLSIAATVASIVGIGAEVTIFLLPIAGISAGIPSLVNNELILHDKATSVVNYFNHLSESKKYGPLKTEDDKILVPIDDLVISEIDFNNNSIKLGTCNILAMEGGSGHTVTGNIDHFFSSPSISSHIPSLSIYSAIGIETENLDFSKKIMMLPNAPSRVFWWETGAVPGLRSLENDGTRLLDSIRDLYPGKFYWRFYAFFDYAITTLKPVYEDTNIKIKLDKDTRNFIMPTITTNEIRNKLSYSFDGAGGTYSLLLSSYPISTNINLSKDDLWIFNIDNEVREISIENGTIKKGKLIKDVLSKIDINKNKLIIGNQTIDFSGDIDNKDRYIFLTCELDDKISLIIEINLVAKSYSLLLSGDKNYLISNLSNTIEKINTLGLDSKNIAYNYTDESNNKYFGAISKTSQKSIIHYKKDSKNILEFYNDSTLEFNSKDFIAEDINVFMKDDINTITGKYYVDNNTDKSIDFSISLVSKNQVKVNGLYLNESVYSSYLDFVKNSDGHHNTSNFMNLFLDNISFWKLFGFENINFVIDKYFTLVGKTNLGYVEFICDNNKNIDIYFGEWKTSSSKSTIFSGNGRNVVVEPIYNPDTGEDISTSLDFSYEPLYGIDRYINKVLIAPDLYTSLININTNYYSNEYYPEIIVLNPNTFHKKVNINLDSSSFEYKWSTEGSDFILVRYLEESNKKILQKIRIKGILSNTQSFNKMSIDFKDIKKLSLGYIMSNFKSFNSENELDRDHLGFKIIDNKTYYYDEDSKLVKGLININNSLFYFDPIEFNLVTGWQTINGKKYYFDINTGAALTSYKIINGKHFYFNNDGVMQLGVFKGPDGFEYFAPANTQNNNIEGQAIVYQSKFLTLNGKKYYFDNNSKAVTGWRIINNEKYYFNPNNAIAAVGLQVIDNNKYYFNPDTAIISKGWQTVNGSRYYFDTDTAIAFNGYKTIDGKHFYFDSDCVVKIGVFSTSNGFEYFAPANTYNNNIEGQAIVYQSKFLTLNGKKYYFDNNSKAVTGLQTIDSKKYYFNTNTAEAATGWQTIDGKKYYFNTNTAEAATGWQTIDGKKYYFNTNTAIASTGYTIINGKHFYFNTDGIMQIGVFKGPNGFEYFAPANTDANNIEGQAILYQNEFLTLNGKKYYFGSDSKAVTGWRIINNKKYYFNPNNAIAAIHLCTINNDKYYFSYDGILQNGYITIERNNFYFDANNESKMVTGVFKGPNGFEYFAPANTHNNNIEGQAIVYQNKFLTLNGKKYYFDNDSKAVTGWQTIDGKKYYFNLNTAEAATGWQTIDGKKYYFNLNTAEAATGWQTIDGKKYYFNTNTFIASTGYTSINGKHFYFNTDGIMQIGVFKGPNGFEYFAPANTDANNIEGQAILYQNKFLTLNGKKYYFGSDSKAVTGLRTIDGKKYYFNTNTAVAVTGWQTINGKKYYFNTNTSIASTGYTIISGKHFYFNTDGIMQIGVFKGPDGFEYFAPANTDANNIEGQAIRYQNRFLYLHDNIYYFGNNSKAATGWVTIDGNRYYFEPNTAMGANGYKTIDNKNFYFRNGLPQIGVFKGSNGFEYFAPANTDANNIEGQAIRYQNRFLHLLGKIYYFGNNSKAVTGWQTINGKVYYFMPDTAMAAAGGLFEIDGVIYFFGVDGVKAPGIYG
# Test: SPR (Biacore 3000), VHH over immobilized TcdA, 1:1 fit
# Method: Before surface plasmon resonance (SPR) binding experiments, IMAC-purified VHHs were subjected to de-salting and further purification by size-exclusion chromatography (SEC). […] Monomeric VHH fractions were collected and analyzed for binding to TcdA using a Biacore 3000 SPR instrument (GE Healthcare). […] Reference-subtracted sensorgrams were analyzed with BIAevaluation software (GE Healthcare) and fit to a 1:1 binding model. […]

Bench note: what koff did A26.8-T56R (VHH, not shown: small tags and cut ends) VHH: QVKLEESGGGLVQAGGSLRLSCAASERTFSRYPVAWFRQAPGAEREFVAVISSTGRSTYYADSVKGRFTISRDNAKVTVYLQMNNLKREDTAVYFCAVNSQRTRLQDPNEYDYWGQGTQVTVSS show?
0.0269 s⁻¹

What measured koff goes with A26.8-N109R (VHH, not shown: small tags and cut ends) VHH: QVKLEESGGGLVQAGGSLRLSCAASERTFSRYPVAWFRQAPGAEREFVAVISSTGTSTYYADSVKGRFTISRDNAKVTVYLQMNNLKREDTAVYFCAVNSQRTRLQDPREYDYWGQGTQVTVSS ?
0.0268 s⁻¹

Requested field: koff. Item: A26.8 VHH mutant D107R (VHH, not shown: small tags and cut ends) VHH: QVKLEESGGGLVQAGGSLRLSCAASERTFSRYPVAWFRQAPGAEREFVAVISSTGTSTYYADSVKGRFTISRDNAKVTVYLQMNNLKREDTAVYFCAVNSQRTRLQRPNEYDYWGQGTQVTVSS
0.0259 s⁻¹

Tell me the measured koff of A26.8 VHH mutant D107N (VHH, not shown: small tags and cut ends) VHH: QVKLEESGGGLVQAGGSLRLSCAASERTFSRYPVAWFRQAPGAEREFVAVISSTGTSTYYADSVKGRFTISRDNAKVTVYLQMNNLKREDTAVYFCAVNSQRTRLQNPNEYDYWGQGTQVTVSS , please.
0.0402 s⁻¹
